B1: library; a variant is named by its letters at N, in order (parent)
chain: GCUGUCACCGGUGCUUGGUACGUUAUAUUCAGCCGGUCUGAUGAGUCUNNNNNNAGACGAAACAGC

variants of: B1; assay: normalized RNA/DNA level without ligand (relative to sTRSVctl = 100) (log10 (% of sTRSVctl)); HEK293T overexpressing SLC46A1; higher = less ribozyme self-cleavage, higher mRNA level; settings: without (6R,S)-folinic acid; ligand present: no
Is normalized RNA/DNA level without ligand (log10) at least 2? Then t. If not, f.

Input: Does the reported normalized RNA/DNA level without ligand (log10) for `UAUUGG` fall at or above the 2 mark?
Output: f

Input: Does the reported normalized RNA/DNA level without ligand (log10) for `UUAUAA` fall at or above the 2 mark?
Output: f

Input: Does the reported normalized RNA/DNA level without ligand (log10) for `UUUUCG` fall at or above the 2 mark?
Output: f

Input: Does the reported normalized RNA/DNA level without ligand (log10) for `AUCGGU` fall at or above the 2 mark?
Output: f

Input: Does the reported normalized RNA/DNA level without ligand (log10) for `UUCCAG` fall at or above the 2 mark?
Output: f

Input: Does the reported normalized RNA/DNA level without ligand (log10) for `AGAGGG` fall at or above the 2 mark?
Output: f

Input: Does the reported normalized RNA/DNA level without ligand (log10) for `ACCUGC` fall at or above the 2 mark?
Output: t

Input: Does the reported normalized RNA/DNA level without ligand (log10) for `GAGGUA` fall at or above the 2 mark?
Output: f

Input: Does the reported normalized RNA/DNA level without ligand (log10) for `CCGGCA` fall at or above the 2 mark?
Output: t

Input: Does the reported normalized RNA/DNA level without ligand (log10) for `GUAUGC` fall at or above the 2 mark?
Output: f

Input: Does the reported normalized RNA/DNA level without ligand (log10) for `UUUCUC` fall at or above the 2 mark?
Output: t

Input: Does the reported normalized RNA/DNA level without ligand (log10) for `CUGAUC` fall at or above the 2 mark?
Output: t

Input: Does the reported normalized RNA/DNA level without ligand (log10) for `UAGUAA` fall at or above the 2 mark?
Output: f

Input: Does the reported normalized RNA/DNA level without ligand (log10) for `ACCUUU` fall at or above the 2 mark?
Output: t

Input: Does the reported normalized RNA/DNA level without ligand (log10) for `UAUGCG` fall at or above the 2 mark?
Output: f

Input: Does the reported normalized RNA/DNA level without ligand (log10) for `UGCUCU` fall at or above the 2 mark?
Output: t

Input: Does the reported normalized RNA/DNA level without ligand (log10) for `ACUAAG` fall at or above the 2 mark?
Output: f

Input: Does the reported normalized RNA/DNA level without ligand (log10) for `CAGGGG` fall at or above the 2 mark?
Output: f

Input: Does the reported normalized RNA/DNA level without ligand (log10) for `UUGCAG` fall at or above the 2 mark?
Output: f

Input: Does the reported normalized RNA/DNA level without ligand (log10) for `GGCCUG` fall at or above the 2 mark?
Output: t

Input: Does the reported normalized RNA/DNA level without ligand (log10) for `AUCAAG` fall at or above the 2 mark?
Output: f

Input: Does the reported normalized RNA/DNA level without ligand (log10) for `GUGGUG` fall at or above the 2 mark?
Output: f

Input: Does the reported normalized RNA/DNA level without ligand (log10) for `CCGACU` fall at or above the 2 mark?
Output: t

Input: Does the reported normalized RNA/DNA level without ligand (log10) for `GUAGAC` fall at or above the 2 mark?
Output: f
